Attribution: patent US20220153732A1

tested on: IL-2-FL/Gaussia Luciferase; test: Dox Induced IL2-FL-Gluc Assay; format: cell-based; conditions: 24 hr doxycycline induction, 293FRT/TO cells, Gaussia luciferase signal; read-out: 24 hr Dox Inducible IL2FLGIuc 293FRT/TO: Mean IC50
pIC50: −log10 of the molar value.
REPORTED_ENDPOINT: pIC50

Examples with their reported pIC50 follow.
| COMPOUND | pIC50 |
| --- | --- |
| O=C(Nc1nc(C2CC(c3ccccc3)C2)cs1)c1cccn1CCCc1ccncc1 (stereo not drawn) | 6.42 |
| COc1ccc(/C=C/c2csc(NC(=O)c3cccn3Cc3ccncc3)n2)cc1F | 6.35 |
| Cc1sc(NC(=O)c2cccn2Cc2ccncc2)nc1C(C)C | 5.85 |
| O=C(Nc1nc(C2(OCc3ccccc3)CC2)cs1)c1cccn1Cc1ccncc1 | 5.98 |
| CC(C)(C)c1cnc(NC(=O)c2cccn2Cc2ccncc2)s1 | 5.35 |
| O=C(Nc1nc(/C=C/c2ccc3c(c2)OC(F)(F)O3)cs1)c1cccn1Cc1ccncc1 | 6.63 |
| O=C(Nc1nc(C(F)(F)F)cs1)c1cccn1Cc1ccncc1 | 6.28 |
| CC(C)OC(C)(C)c1csc(NC(=O)c2cccn2C(C)c2ccncc2)n1 (stereo not drawn) | 5.62 |
| O=C(Nc1nc([C@H]2C[C@@H]2c2ccccc2)cs1)c1cccn1Cc1ccncc1 | 5.94 |
| O=C(Nc1nc(C2CC2)cs1)c1cccn1Cc1ccncc1 | 5.53 |

(a) O=C(Nc1nc(/C=C/c2ccc(C(F)(F)F)cc2)cs1)c1cccn1Cc1ccncc1
(b) CC(C)OC(C)(C)c1csc(NC(=O)c2cccn2Cc2ccccc2Cl)n1
Compare a and b by numeric pIC50 and name the larger one. Bench note: the answer is the label of the chosen record. a
(a: 6.35, b: 5.20)

----------
test system: PD1-ss+10aa/Gaussia Luciferase; experiment: Dox-Induced PD1-ss-Gluc Assay; assay type: cell-based; conditions: 24 hr doxycycline induction, 293FRT/TO cells, Gaussia luciferase signal; read-out: 24 hr Dox Inducible PD1ssGluc 293FRT/TO: Mean IC50
pIC50: −log10 of the molar value.
REPORTED_ENDPOINT: pIC50

Examples with their reported pIC50 follow.
| COMPOUND | pIC50 |
| --- | --- |
| CC(C)OC(C)(C)c1csc(NC(=O)c2cccn2Cc2cc(F)nc(F)c2)n1 | 6.16 |
| Cc1sc(NC(=O)c2cccn2Cc2ccncc2)nc1C(C)C | 6.15 |
| O=C(Nc1nc(/C=C/c2ccc3c(c2)OCO3)cs1)c1cccn1Cc1ccncc1 | 7.20 |
| Cc1ccc(C(=O)Nc2nc(C(C)(C)OC(C)C)cs2)n1Cc1ccncc1 | 5.56 |
| Cc1csc(NC(=O)c2cccn2Cc2ccncc2)n1 | 5.77 |
| O=C(Nc1nc([C@@H]2CC[C@@H](c3ccccc3)C2)cs1)c1cccn1Cc1ccncc1 (stereo in doubt) | 6.68 |
| O=C(Nc1nc(/C=C/c2ccoc2)cs1)c1cccn1Cc1ccncc1 | 6.46 |
| Cc1nc(NC(=O)c2cccn2Cc2ccncc2)sc1C | 5.82 |
| CC(OC(C)(C)c1csc(NC(=O)c2cccn2Cc2ccncc2)n1)c1ccc(Cl)cc1 (stereo not drawn) | 7.37 |
| CC(C)OC(C)c1csc(NC(=O)c2cccn2Cc2ccncc2)n1 (stereo not drawn) | 6.34 |

(a) CC(F)(F)c1csc(NC(=O)c2cccn2Cc2ccncc2)n1
(b) O=C(Nc1nc(/C=C/c2cccc(Cl)c2)cs1)c1cccn1Cc1ccncc1
Compare a and b by numeric pIC50 and name the larger one. Bench note: the answer is the label of the chosen record. b
(b: 6.63, a: 6.31)

(a) O=C(Nc1nc(/C=C\c2ccccc2)cs1)c1cccn1Cc1ccncc1
(b) Cc1ccn(Cc2ccncc2)c1C(=O)Nc1nc(C(C)(C)OC(C)C)cs1
(c) O=C(Nc1nc(C2CC2)cs1)c1cccn1Cc1ccncc1
# rank by pIC50, ascending (min first) Answer by listing the labels in the requested order. b, c, a

----------
system: IL-2-FL/Gaussia Luciferase; assay: Dox Induced IL2-FL-Gluc Assay; type: cell-based; details: 24 hr doxycycline induction, 293FRT/TO cells, Gaussia luciferase signal; read-out: 24 hr Dox Inducible IL2FLGIuc 293FRT/TO: Mean IC50
pIC50: −log10 of the molar value.
REPORTED_ENDPOINT: pIC50

Examples with their reported pIC50 follow.
| COMPOUND | pIC50 |
| --- | --- |
| Cc1cccc2sc(NC(=O)c3cccn3Cc3ccncc3)nc12 [Compound A46] | 6.05 |
| O=C(Nc1nc(/C=C/c2ccc3ncccc3c2)cs1)c1cccn1Cc1ccncc1 [Compound A237] | 5.73 |
| CC(C)OC(C)(C)c1csc(NC(=O)c2cccn2CCOc2ccncc2)n1 [Compound A226] | 6.49 |

(1) O=C(Nc1nc([C@H]2C[C@H]2c2ccccc2)cs1)c1cccn1Cc1ccncc1 [Compound A200]
(2) COc1cnccc1Cn1cccc1C(=O)Nc1nc(C(C)(C)OC(C)C)cs1 [Compound A211]
Compare 1 and 2 by numeric pIC50 and name the larger one. Bench note: the answer is the label of the chosen record. 1
(1: 6.60, 2: 5.08)

----------
Tested on: PD1-ss+10aa/Gaussia Luciferase
Assay: Dox-Induced PD1-ss-Gluc Assay
Type: cell-based
Settings: 24 hr doxycycline induction, 293FRT/TO cells, Gaussia luciferase signal; read-out: 24 hr Dox Inducible PD1ssGluc 293FRT/TO: Mean IC50
Experimental: Transfected cells were selected for resistance to the selectable markers Hygromycin and Blasticidin to create a stable cell line that contained the PD1-ss+10aa/Gaussia Luciferase cDNA insert whose expression was regulated under the T-REx™ system. The day before assay, cells were trypsinized and plated in 384-well tissue culture plates. The next day, compound dilutions in DMSO/media containing doxycycline were added to the wells and incubated at 37° C., 5% CO2. […]
pIC50: −log10 of the molar value.
REPORTED_ENDPOINT: pIC50

(A) CO[C@H]1CC[C@@H](/C=C/c2csc(NC(=O)c3cccn3Cc3ccncc3)n2)CC1 [Compound A254]
(B) CN(C)C(=O)c1ccc(/C=C/c2csc(NC(=O)c3cccn3Cc3ccncc3)n2)cc1 [Compound A246]
Compare A and B by numeric pIC50 and name the larger one. Bench note: the answer is the label of the chosen record. A

----------
Entries and their IC50 values follow.
system: HER3-ss+4aa/Gaussia Luciferase; assay: Dox-Induced Her3-ss-Gluc Assay; type: cell-based; conditions: 24 hr doxycycline induction, 293FRT/TO cells, Gaussia luciferase signal; read-out: 24 hr Dox Inducible Her3(ss + 4)Gluc 293FRT/TO: Mean IC50

Examples with their reported IC50 follow.
| COMPOUND | IC50 |
| --- | --- |
| CC(C)OC(C)(C)c1csc(NC(=O)c2cccn2Cc2cccnc2)n1 [Compound A87] | > 25 µM |
| CC(C)OC(C)(C)c1csc(NC(=O)c2cccn2CCCc2cccnc2)n1 [Compound A190] | > 18.1 µM |
| Cc1cc(C(=O)Nc2nc(C(C)(C)OC(C)C)cs2)n(Cc2ccncc2)n1 [Compound A103] | > 25 µM |

Shifting focus to the compound that follows.
Annotate the compound CC(C)OC(C)(C)c1csc(NC(=O)c2cccn2CCc2ccncc2)n1 [Compound A91] with its measured IC50. > 25 µM

----------
Tested on: HER3-ss+4aa/Gaussia Luciferase
Test: Dox-Induced Her3-ss-Gluc Assay
Format: cell-based
Conditions: 24 hr doxycycline induction, 293FRT/TO cells, Gaussia luciferase signal; read-out: 24 hr Dox Inducible Her3(ss + 4)Gluc 293FRT/TO: Mean IC50
Procedure: Transfected cells were selected for resistance to the selectable markers Hygromycin and Blasticidin to create a stable cell line that contained the HER3-ss+4aa/Gaussia Luciferase cDNA insert whose expression was regulated under the T-REx™ system. The day before assay, cells were trypsinized and plated in 384-well tissue culture plates. The next day, compound dilutions in DMSO/media containing doxycycline were added to the wells and incubated at 37° C., 5% CO2. […]
REPORTED_ENDPOINT: IC50

Examples with their reported IC50 follow.
| COMPOUND | IC50 |
| --- | --- |
| O=C(Nc1nc(N2CCCC(c3ccccc3)C2)cs1)c1cccn1Cc1ccncc1 (stereo not drawn) | > 25 µM |
| Cc1csc(N(C)C(=O)c2cccn2Cc2ccncc2)n1 | > 25 µM |

Shifting focus to the compound that follows.
Annotate the compound Cc1cc(Cn2cccc2C(=O)Nc2nc(C(C)(C)OC(C)C)cs2)cc(C)n1 with its measured IC50. > 25 µM

----------
test system: PD1-ss+10aa/Gaussia Luciferase; assay: Dox-Induced PD1-ss-Gluc Assay; type: cell-based; conditions: 24 hr doxycycline induction, 293FRT/TO cells, Gaussia luciferase signal; read-out: 24 hr Dox Inducible PD1ssGluc 293FRT/TO: Mean IC50
REPORTED_ENDPOINT: IC50 (nM)

Examples with their reported IC50 follow.
| MOLECULE | IC50 / nM |
| --- | --- |
| O=C(Nc1nc(/C=C/c2ccccc2Cl)cs1)c1cccn1Cc1ccncc1 | 134 |
| CCc1sc(NC(=O)c2cccn2Cc2ccncc2)nc1C | 942 |
| COc1ccc(/C=C/c2csc(NC(=O)c3cccn3Cc3ccncc3)n2)c(F)c1 | 27 |
| O=C(Nc1ncc(Cc2ccccc2)s1)c1cccn1Cc1ccncc1 | 674 |
| O=C(Nc1nc(/C=C/c2ccccc2)cs1)c1cccn1Cc1ccncc1 | 153 |
| CC(OC(C)(C)c1csc(NC(=O)c2cccn2Cc2ccncc2)n1)c1ccccc1 (stereo not shown) | 36 |
| Cc1sc(NC(=O)c2cccn2Cc2ccncc2)nc1C(C)OC(C)C (stereo not shown) | 248 |
| Cc1sc(NC(=O)c2cccn2Cc2ccncc2)nc1C1CC1 | 1090 |
| O=C(Nc1nc(/C=C/c2ccoc2)cs1)c1cccn1CCCc1ccncc1 | 2990 |
| O=C(Nc1nc(/C=C/C2CCCCC2)cs1)c1cccn1Cc1ccncc1 | 85 |

(P) COc1cccc(C#Cc2csc(NC(=O)c3cccn3Cc3ccncc3)n2)c1
(Q) COc1ccc(/C=C/c2csc(NC(=O)c3cccn3Cc3ccncc3)n2)cc1F
(R) CCc1csc(NC(=O)c2cccn2Cc2ccncc2)n1
# rank by IC50, ascending (min first) Answer by listing the labels in the requested order. Q, P, R
(Q: 55 nM, P: 241 nM, R: 692 nM)
